5-hydroxytryptamine receptor 1B (Rattus norvegicus) measurements of Ki, listed per entry.
Sequence (P28564 whole entry): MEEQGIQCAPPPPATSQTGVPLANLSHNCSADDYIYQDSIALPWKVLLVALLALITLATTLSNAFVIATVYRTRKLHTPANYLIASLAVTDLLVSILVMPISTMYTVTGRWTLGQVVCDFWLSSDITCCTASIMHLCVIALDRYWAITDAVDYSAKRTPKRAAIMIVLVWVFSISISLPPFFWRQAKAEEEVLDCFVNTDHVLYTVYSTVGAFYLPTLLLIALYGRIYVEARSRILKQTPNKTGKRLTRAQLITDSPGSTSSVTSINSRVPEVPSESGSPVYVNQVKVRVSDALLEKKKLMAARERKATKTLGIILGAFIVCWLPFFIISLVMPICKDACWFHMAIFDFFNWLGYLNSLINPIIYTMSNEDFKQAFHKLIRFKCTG

Request: Can you look up the measured Ki of Clc1cncc(N2CCNCC2)n1 for me?
Response: 3.63 µM

Request: FC(F)(F)c1cccc(N2CCNCC2)c1 ?
Response: 0.116 µM

Request: Next up: FC(F)(F)c1ccc2c(c1)N1CCNCC1CC2 (stereo not drawn)
Response: 0.067 µM
